- Tested on: U87-CD4-CCR5 or U87-CD4-CXCR4 cells
- measurement-protocol: U87 cell viability MTT
- Assay type: cell-based
- condition-parameters: 5µM
Some compounds, each annotated with its measured U87 % cell death rep3 (X4 P24 NO Washout expt).
Please give a number only; it is taken to be in %.

Past entries and their recorded results:
INSERT INTO measurements (smiles_input, units_of_measure, recorded_number) VALUES
  ('COc1cc2cc(C(=O)Nc3ccccc3)c(N)nc2cc1OC', '%', 106),
  ('CCOC(=O)c1cnc2ccc(OC)cc2c1NCc1ccccc1', '%', 46),
  ('CCN(CC)c1cc(C)c2cc(NC(=O)c3cccc(OC)c3)ccc2n1', '%', 13),
  ('CCN1CCN(c2cc(C)c3cc(NC(=O)c4ccc(OC)c(OC)c4)ccc3n2)CC1', '%', 3.26);

Switching to the query record.
Q: Query (compound): COc1ccc(C(=O)Nc2ccc3nc(N4CCCCC4)cc(C)c3c2)cc1OC ; field requested: U87 % cell death rep3 (X4 P24 NO Washout expt)
Result: -2.11
